Target: CD117 (Homo sapiens, UniProt P10721)
Sequence (P10721 26-976): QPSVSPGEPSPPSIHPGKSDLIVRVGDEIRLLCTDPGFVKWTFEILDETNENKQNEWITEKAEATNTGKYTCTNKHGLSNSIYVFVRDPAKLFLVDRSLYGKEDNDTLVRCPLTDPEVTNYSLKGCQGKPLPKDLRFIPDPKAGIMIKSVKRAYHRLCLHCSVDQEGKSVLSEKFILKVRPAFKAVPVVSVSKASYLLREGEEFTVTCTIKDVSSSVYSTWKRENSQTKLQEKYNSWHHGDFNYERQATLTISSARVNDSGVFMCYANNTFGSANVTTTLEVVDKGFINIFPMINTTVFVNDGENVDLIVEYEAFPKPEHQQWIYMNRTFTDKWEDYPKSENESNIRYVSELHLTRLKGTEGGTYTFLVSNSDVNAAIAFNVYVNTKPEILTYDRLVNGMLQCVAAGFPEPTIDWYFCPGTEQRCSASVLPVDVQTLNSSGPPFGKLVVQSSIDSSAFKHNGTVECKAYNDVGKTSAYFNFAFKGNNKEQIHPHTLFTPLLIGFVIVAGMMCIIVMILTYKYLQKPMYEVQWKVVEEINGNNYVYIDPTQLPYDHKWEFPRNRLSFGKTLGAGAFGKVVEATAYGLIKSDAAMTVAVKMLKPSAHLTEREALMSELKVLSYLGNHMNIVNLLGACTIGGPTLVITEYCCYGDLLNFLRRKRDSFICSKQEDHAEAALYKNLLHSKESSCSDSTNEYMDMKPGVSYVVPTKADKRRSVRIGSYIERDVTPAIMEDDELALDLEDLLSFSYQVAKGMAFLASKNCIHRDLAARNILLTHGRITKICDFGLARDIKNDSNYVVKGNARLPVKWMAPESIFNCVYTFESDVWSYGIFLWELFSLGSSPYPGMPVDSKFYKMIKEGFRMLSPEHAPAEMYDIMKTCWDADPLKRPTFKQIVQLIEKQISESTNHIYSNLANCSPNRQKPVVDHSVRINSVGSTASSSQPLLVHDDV
Test: In vitro stem cell factor (SCF)-dependent cell proliferation assay (neutral vs antagonist)
Type: cell-based
Set-up: endogenous in cells; host or cells: CD34+ cells dependent on SCF
Metric Name: effect on CD117 activity (neutral or antagonist antibody)

Molecule	Result
Ab57: anti-CD117 antibody, VH SEQ ID NO: 49, VL SEQ ID NO: 50 (antibody, V domains shown) VH: QVQLVQSGAEVKKPGSSVKVSCKASGGTFSLYAISWVRQAPGQGLEWMGGIIPHFGLANYAQKFQGRVTITADESTSTAYMELSSLRSEDTAVYYCARGGLDTDEFDLWGRGTLVTVSS VL: DIQMTQSPSSLSASVGDRVTITCRASQSINSYLNWYQQKPGKAPKLLIYAASSLQSGVPSRFSGSGSGTDFTLTISSLQPEDFATYYCQQGVSDITFGGGTKVEIK	Antagonist
Ab54: anti-CD117 antibody, VH SEQ ID NO: 29, VL SEQ ID NO: 30 (antibody, V domains shown) VH: QVQLVQSGAEVKKPGSSVKVSCKASGGTFSSYAISWVRQAPGQGLEWMGGIIPIFGTANYAQKFQGRVTITADESTSTAYMELSSLRSEDTAVYYCARGGLDTDEFDLWGRGTLVTVSS VL: DIQMTQSPSSLSASVGDRVTITCRASQSINSYLNWYQQKPGKAPKLLIYAASSLQSGVPSRFSGSGSGTDFTLTISSLQPEDFATYYCQQGVSDITFGGGTKVEIK	Antagonist
Ab55: anti-CD117 antibody, VH SEQ ID NO: 19, VL SEQ ID NO: 20 (antibody, V domains shown) VH: QVQLVQSGAEVKKPGSSVKVSCKASGGTFRIYAISWVRQAPGQGLEWMGGIIPDFGVANYAQKFQGRVTITADESTSTAYMELSSLRSEDTAVYYCARGGLDTDEFDLWGRGTLVTVSS VL: DIQMTQSPSSLSASVGDRVTITCRASQSINSYLNWYQQKPGKAPKLLIYAASSLQSGVPSRFSGSGSGTDFTLTISSLQPEDFATYYCQQGVSDITFGGGTKVEIK	Antagonist
